Listing of entries alongside the reported IC50.
- system.name: HLA A2302 (Homo sapiens, UniProt P04439, D101N/D140Y/D185E/E176V/E190D/F33S/G103R/G107R/H175R/I119L/I121M/I306V/K168Q/K335N/L105A/L180W/L300P/N151K/N90K/P307H/Q86E/Q94H/R106L/R138H/R89G/T104I/T345S/V100E/W191G/Y123F)
- assay.overview: HLA class I competition binding assay using soluble HLA
Where no end group is shown, it is not given here.
Field format: number, assumed nM, no unit text.

Look over these answered cases.
{"sequence.string": "VFTFPNPFPF [compound 62]", "IC50 (nM)": 12}
{"sequence.string": "HYTNWKFIF [compound 63]", "IC50 (nM)": 16}
{"sequence.string": "VYVCAFAWLL [compound 86]", "IC50 (nM)": 8.1}
{"sequence.string": "VYVFCFLLPM [compound 43]", "IC50 (nM)": 57}
{"sequence.string": "FYSRIRELRF [compound 88]", "IC50 (nM)": 1}

Proceed to the following item.
Ask: Looking for the measured IC50 of PYLHSRLVVF [compound 61] , can you help?
Result: 2.8
